Assay: Spectroscopic measurements (absorption, emission, quantum yield, extinction coefficient)
Assay type: physicochemical
Settings: BDNCA library, fluorescence emission
Recorded measurements of Flu, one per entry
Number only, please.

Examples with answers:
[[record]]
line_notation = "CC1=CC(/C=C/c2c(Br)ccc3c2OCO3)=[N+]2C1=C(c1ccc(NC(=O)CCl)cc1)c1cccn1[B-]2(F)F"
test_value = 582

[[record]]
line_notation = "CC1=CC(/C=C/c2ccccc2C)=[N+]2C1=C(c1ccc(NC(=O)CCl)cc1)c1cccn1[B-]2(F)F"
test_value = 577

[[record]]
line_notation = "CC1=CC(/C=C/C=C(c2ccccc2)c2ccccc2)=[N+]2C1=C(c1ccc(NC(=O)CCl)cc1)c1cccn1[B-]2(F)F"
test_value = 614


Request: Quick check: Flu of CC1=CC(/C=C/c2cccc(Oc3ccccc3)c2)=[N+]2C1=C(c1ccc(NC(=O)CCl)cc1)c1cccn1[B-]2(F)F ?
Result: 576

Request: Quick check: Flu of C=CCOc1ccc(/C=C/C2=[N+]3C(=C(c4ccc(NC(=O)CCl)cc4)c4cccn4[B-]3(F)F)C(C)=C2)cc1 ?
Result: 597

Request: Quick check: Flu of CC1=CC(/C=C/c2csc3ccccc23)=[N+]2C1=C(c1ccc(NC(=O)CCl)cc1)c1cccn1[B-]2(F)F ?
Result: 600

* * *

Experiment: Spectroscopic measurements (absorption, emission, quantum yield, extinction coefficient)
Type: physicochemical
Details: BDNCA library, extinction coefficient; in M-1 cm-1 (unit assumed)
Recorded measurements of ε, one per entry

[[record]]
line_notation = "COc1cccc(Oc2ccccc2/C=C/C2=[N+]3C(=C(c4ccc(NC(=O)CCl)cc4)c4cccn4[B-]3(F)F)C(C)=C2)c1"
readout_kind = "ε"
test_value = "67,277"


Request: Quick check: ε of COc1cccc(/C=C/C2=[N+]3C(=C(c4ccc(NC(=O)CCl)cc4)c4cccn4[B-]3(F)F)C(C)=C2)c1 ?
Result: 61,510

Request: Quick check: ε of COc1cccc(/C=C/C2=[N+]3C(=C(c4ccc(NC(=O)CCl)cc4)c4cccn4[B-]3(F)F)C(C)=C2)c1Cl ?
Result: 79,908

Request: Quick check: ε of CCOC(OCC)c1ccc(/C=C/C2=[N+]3C(=C(c4ccc(NC(=O)CCl)cc4)c4cccn4[B-]3(F)F)C(C)=C2)cc1 ?
Result: 20,046

* * *

Recorded measurements of Flu, one per entry
Experiment: Spectroscopic measurements (absorption, emission, quantum yield, extinction coefficient)
Type: physicochemical
Conditions: BDNCA library, fluorescence emission
Number only, please.

Examples with answers:
[[record]]
line_notation = "COc1c(Br)cc(Br)cc1/C=C/C1=[N+]2C(=C(c3ccc(NC(=O)CCl)cc3)c3cccn3[B-]2(F)F)C(C)=C1"
test_value = 578

[[record]]
line_notation = "COc1ccc(/C=C/c2cc(C)c3n2[B-](F)(F)[N+]2=CC=CC2=C3c2ccc(NC(=O)CCl)cc2)c(O)c1"
test_value = 630

[[record]]
line_notation = "COc1cc(OC)c(/C=C/C2=[N+]3C(=C(c4ccc(NC(=O)CCl)cc4)c4cccn4[B-]3(F)F)C(C)=C2)c(OC)c1"
test_value = 632

[[record]]
line_notation = "COc1ccc(-c2ccc(/C=C/C3=[N+]4C(=C(c5ccc(NC(=O)CCl)cc5)c5cccn5[B-]4(F)F)C(C)=C3)o2)cc1Cl"
test_value = 681

[[record]]
line_notation = "COc1ccc2ccccc2c1/C=C/C1=[N+]2C(=C(c3ccc(NC(=O)CCl)cc3)c3cccn3[B-]2(F)F)C(C)=C1"
test_value = 627


Request: Quick check: Flu of COc1cc(/C=C/C2=[N+]3C(=C(c4ccc(NC(=O)CCl)cc4)c4cccn4[B-]3(F)F)C(C)=C2)ccc1OCCBr ?
Result: 609

Request: Quick check: Flu of COc1ccc(/C=C/C2=[N+]3C(=C(c4ccc(NC(=O)CCl)cc4)c4cccn4[B-]3(F)F)C(C)=C2)cc1Cl ?
Result: 590

Request: Quick check: Flu of COc1ccc(/C=C/C2=[N+]3C(=C(c4ccc(NC(=O)CCl)cc4)c4cccn4[B-]3(F)F)C(C)=C2)cc1OCc1ccccc1 ?
Result: 616

Request: Quick check: Flu of Cc1cc(/C=C/c2ccccc2C(=O)O)n2c1C(c1ccc(NC(=O)CCl)cc1)=C1C=CC=[N+]1[B-]2(F)F ?
Result: 574

Request: Quick check: Flu of COc1cccc(/C=C/C2=[N+]3C(=C(c4ccc(NC(=O)CCl)cc4)c4cccn4[B-]3(F)F)C(C)=C2)c1 ?
Result: 576

Request: Quick check: Flu of COc1cc(/C=C/C2=[N+]3C(=C(c4ccc(NC(=O)CCl)cc4)c4cccn4[B-]3(F)F)C(C)=C2)cc(Cl)c1O ?
Result: 597

Request: Quick check: Flu of Cc1cc(/C=C/c2cccc(Br)c2O)n2c1C(c1ccc(NC(=O)CCl)cc1)=C1C=CC=[N+]1[B-]2(F)F ?
Result: 582

Request: Quick check: Flu of COc1cc(Cl)cc(/C=C/C2=[N+]3C(=C(c4ccc(NC(=O)CCl)cc4)c4cccn4[B-]3(F)F)C(C)=C2)c1OC ?
Result: 577

Request: Quick check: Flu of CC1=CC(/C=C/c2cccc(Oc3ccc(Cl)c(Cl)c3)c2)=[N+]2C1=C(c1ccc(NC(=O)CCl)cc1)c1cccn1[B-]2(F)F ?
Result: 575

Request: Quick check: Flu of Cc1cc(/C=C/c2ccccc2OCC(=O)O)n2c1C(c1ccc(NC(=O)CCl)cc1)=C1C=CC=[N+]1[B-]2(F)F ?
Result: 584
